- measurement protocol: protein stability index of a GFP-peptide fusion (yeast GPS) (PSI 1-4); higher = more stable; sorted into four equal gates, so the index is relative within each strain
- test settings: san1∆
Classification field: 1 (yes) = protein stability index at or over 3; 0 (no) = protein stability index under 3.

seq text: MVNIGLHNLNEYQIVYY [RGR1]
assigned label: 0 (no)
--
seq text: QQKLNTRMQRGHRADVG [REC8]
assigned label: 0 (no)
--
seq text: LLVPLALLTKRLYPHWD [CSN12]
assigned label: 0 (no)
--
seq text: NEKLADLGLEKEFQSVD [RPC53]
assigned label: 0 (no)
--
seq text: CLSPGAFLSKVPEFFQT [SRP14]
assigned label: 0 (no)

Is it the case that QENKNIDDENITKLNKE [SRB4] has protein stability index reaching or exceeding 3?
1 (yes)

Is it the case that AAQTNATFLKLAAPQLV [RPT5] has protein stability index reaching or exceeding 3?
0 (no)

Is it the case that SGEDAEEELWNSPSKGN [YIL149C/MLP2] has protein stability index reaching or exceeding 3?
1 (yes)

Is it the case that GQLGEMAKCLDNPDQGI [YCS4] has protein stability index reaching or exceeding 3?
1 (yes)

Is it the case that GAGIQIIMQADLALKMG [FAS2] has protein stability index reaching or exceeding 3?
0 (no)

Is it the case that IQQVVEYADNDEDKFKK [PRP28] has protein stability index reaching or exceeding 3?
1 (yes)

Is it the case that LIDFEYVNDVAIYNNPT [RRI2] has protein stability index reaching or exceeding 3?
0 (no)

Is it the case that KATAAKKAVVKGTNGKK [RPL25] has protein stability index reaching or exceeding 3?
0 (no)

Is it the case that SNSNVTNPSSIFGGAGG [YOR098C/NUP1] has protein stability index reaching or exceeding 3?
0 (no)

Is it the case that AKKQNYKLTNDEEGIFS [YCG1] has protein stability index reaching or exceeding 3?
1 (yes)

Is it the case that NMLLDPAANESEVANNG [RRP42] has protein stability index reaching or exceeding 3?
0 (no)

Is it the case that QEKNFQTGIFVYQNNIT [RPB5] has protein stability index reaching or exceeding 3?
0 (no)

Is it the case that MSAKAQNPMRDLKIEKL [RPL11A] has protein stability index reaching or exceeding 3?
1 (yes)

Is it the case that ALKGPVRDKLDEYQAAV [DPB4] has protein stability index reaching or exceeding 3?
1 (yes)
